# experiment: chemical genetic growth profiling, strain panel (AID 1159580);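 note: tested at 20 µM; growth read once vehicle control cultures reached saturation at 30 °C; 1 = growth at the plate median or of vehicle wells; lower values mean less growth of the strain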
# run_parameters: S. cerevisiae deletion strains, growth OD, locus YDL185W, strain tfp1, active compounds read low
In all, about 5,500 compounds went through this assay and about 2,000 (36%) were called active. Inconclusive results (about 18%) are left out. The list shows a part of the results. Where a SMILES comes first, the peptide text is derived from it. Bridges are numbered along the chain shown (N, C = ends). [ ]: non-standard residue; d: D form. The star is where a group is joined. ξ: configuration not given here. ξDab(CH2SO3H) = NC(CCNCS(=O)(=O)O)C(=O)O; Heptanoyl(6-Me) = CC(C)CCCCC(=O)*; Dab = NCC[CH](N)C(=O)O; For = O=C*
Kindly supply the reported normalized growth values for the records listed here.
Lab note: jot the number down without any unit.

Give the measured normalized growth for CSCCC(NC=O)C(=O)NC(Cc1ccccc1)C(=O)O (stereo not drawn) (For-Met-Phe-OH; configuration not given here)
1.02

Supply normalized growth value. Item: C[C@]12CCC(=O)C=C1CCC1C2[C@@H](O)C[C@@]2(C)C1CC[C@]2(O)C(=O)CO (stereo not given in full)
1

Quote normalized growth reported for C/C=C(/C)C(=O)O[C@H]1CC[C@@]2(C)[C@@H]3CC[C@H]4[C@]5(O)C[C@H](O)[C@@]6(O)[C@@H](CN7C[C@@H](C)CC[C@H]7[C@@]6(C)O)[C@]5(O)C[C@@]42O[C@]13O please.
0.966

Please supply the value of reported normalized growth for the item Cc1cc(O)c2c(c1)Cc1cccc(O)c1C2=O
1

In one line, give reported normalized growth of the entry Nc1ccccc1C(=O)CC(N)C(=O)O (stereo not given) .
0.947

Recall and state the measured normalized growth for O=C1c2c(O)cccc2Cc2cccc(O)c21 .
0.999

Give me measured normalized growth, please, for this compound: COc1cc(C(=O)O[C@H]2CC[C@@]3(C)[C@@H]4CC[C@H]5[C@]6(O)C[C@H](O)[C@@]7(O)[C@@H](CN8C[C@@H](C)CC[C@H]8[C@@]7(C)O)[C@]6(O)C[C@@]53O[C@]24O)cc(OC)c1OC
0.978

Read off the recorded normalized growth for Cc1cc(C(C)(C)C)c(O)c(C(C)(C)C)c1
0.962

Recall and state the measured normalized growth for CCC(C)C1NC(=O)C(CCNCS(=O)(=O)O)NC(=O)C(NC(=O)C(CCNCS(=O)(=O)O)NC(=O)C(NC(=O)C(CCNCS(=O)(=O)O)NC(=O)CCCCC(C)C)C(C)O)CCNC(=O)C(C(C)O)NC(=O)C(CCNCS(=O)(=O)O)NC(=O)C(CCNCS(=O)(=O)O)NC(=O)C(C(C)CC)NC1=O (stereo not given) ({Heptanoyl(6-Me)}-[ξDab(CH2SO3H)]T[ξDab(CH2SO3H)][Dab][ξDab(CH2SO3H)]II[ξDab(CH2SO3H)][ξDab(CH2SO3H)]T; lactam 4-C; configuration not given here) .
0.935

Query normalized growth for CCC(C)C(NC)C(=O)O (stereo not given)
0.986

Find the measured normalized growth of COC(=O)C[C@H]1C(C)(C)C(=O)[C@@H]2CC3C4=CC(=O)O[C@@H](c5ccoc5)[C@]4(C)CCC3[C@@]1(C)C2=O (stereo not given in full) and report it.
0.954

Please report normalized growth for the following compound: COc1cc(N)c(Cl)cc1C(=O)NC1CCN(Cc2ccccc2)CC1
0.954

Return normalized growth (reported value) for this compound: COc1cccc(OC)c1OCCNCC1COc2ccccc2O1 (stereo not given)
0.991

Hello, please tell me recorded normalized growth for this one: COC(=O)Nc1nc2ccc(C(=O)c3ccccc3)cc2[nH]1
1.04

Quote normalized growth reported for CC(C)(Sc1cc(C(C)(C)C)c(O)c(C(C)(C)C)c1)Sc1cc(C(C)(C)C)c(O)c(C(C)(C)C)c1 please.
1.02
